- Protocol Text: binders of probe aHhip on microarray, primary screen, stem cell growth factor project, biochemical, small-molecule microarray, fluorescence 635/667 (AID 1087);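 further: score merges spot fluorescence at 667nm with spot signal to noise ratio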
- Condition Summary: higher = more signal
Quantity: composite z-score
Number only, no unit.

Which composite z-score reading was recorded for the compound C=C(/C(=C/C[C@@H](OC(C)=O)c1cccc(OCCO)c1)c1cnc2ccccc2c1)C(C)C ?
-0.0645

Then this compound: NC(=O)NCC#Cc1ccc2c(c1)[C@]1(C(=O)N2)[C@H](c2ccc(OCCO)cc2)N2[C@H](c3ccccc3)[C@H](c3ccccc3)OC(=O)[C@H]2[C@@H]1C(=O)O
-0.374

Then this compound: CN(C)c1ccc(C(O)C2C=CC3C(=O)N(Cc4ccccc4)C(=O)C3N2n2cnnc2)cc1 (configuration not stated)
0.244

Then this compound: COc1ccc([Si](C)(C)[C@@H]2[C@@H](CC(=O)N3CCC[C@H]3CO)O[C@]3(C(=O)N(Cc4cccc(N5CCCCC5=O)c4)c4ccccc43)[C@H]2C)cc1
-0.0296

Then this compound: COc1cc(CO)cc(I)c1O[C@H]1C=C(C(=O)NCCO)C[C@@H]2O[C@H]12
-0.199

Then this compound: CC1=C([C@H](O)CCc2ccccc2)[C@H](CO)n2c(=O)n(-c3ccccc3)c(=O)n2C1
-0.236

Then this compound: CC(C)N1C(=O)C[C@@](C(=O)NCCN2CCOCC2)(c2ccc([N+](=O)[O-])cc2)[C@H]1c1ccc(CO)cc1
-0.0708

###

For each record, write down the corresponding composite z-score.
- Tested on: glycogen synthase kinase-3 (GSK3A per assay name; protocol says GSK3B)
- Protocol Text: compounds binding glycogen synthase kinase-3 – biochemical, small-molecule microarray, 635 nm fluorescence, GSK3A, primary screen (AID 1103); further: the record names both GSK3A and GSK3B
- Condition Summary: fluorescence 635 nm, higher = more signal
Number only, no unit.

// map [N-]=[N+]=Nc1ccccc1C[C@]1(C(=O)N2CCOCC2)N=C(c2ccc(OCCCO)cc2)O[C@H]1c1ccccc1N=[N+]=[N-] to recorded composite z-score (system: glycogen synthase kinase-3 (GSK3A per assay name; protocol says GSK3B))
1.31

Then this compound: CN(C)CCCC[C@@H]1NC(=O)[C@@H]2C[C@H](C(=O)NCCCCCN)[C@H](c3cccc(OCCO)c3)N2C1=O
1.16

Then this compound: C=C(COC)/C(=C/C[C@H](OC(C)=O)c1ccccc1OCCO)c1cc(C(=O)OC)ccc1OC
0.196

Then this compound: CCOC(=O)C[C@H]1[C@H](OC(=O)c2ccccc2-c2ccccc2)[C@@H](NC(=O)C2CCCCC2)c2cc(OCCCO)ccc2N1C(=O)c1ccc2ccccc2n1
0.452

Then this compound: COc1ccc(CCNC(=O)[C@@H]2c3ccccc3C(=O)N(Cc3ccccc3OC)[C@H]2c2ccc(CO)cc2)cc1
0.931

Then this compound: COc1cc(OC)c(C(O)C2C=CC3C(=O)N(c4ccccc4)C(=O)C3N2Nc2ccc(C(C)C)cc2)cc1Br (stereo not given)
1.3

Then this compound: CC(C)(C)N1CC=CC23O[C@@H]4C=CCOC(=O)[C@@H]4[C@H]2C(=O)N(CCO)[C@@H]3C1=O (stereo not given in full)
-1.14

Then this compound: Cc1ccc(S[C@]2(C(=O)NCCCN(C)C)CC(=O)N(Cc3ccccc3C(F)(F)F)[C@@H]2c2ccc(CO)cc2I)cc1
-0.605

Then this compound: CCCC=C(CCC)[C@@H](NC(=O)c1ccc(C(F)(F)F)cc1)c1ccc(C(F)(F)F)cc1
1.13

Then this compound: CC(C)C(=C=CC[C@H](O)c1ccccc1OCCO)C[C@H](O)COCc1ccccc1
-0.409

Then this compound: COCCOC(=O)N1C(=O)[C@@]2(c3cc(C#CCC(C(=O)OC)C(=O)OC)ccc31)[C@H](C(=O)Nc1nc3ccccc3s1)[C@H]1C(=O)O[C@H](c3ccccc3)[C@H](c3ccccc3)N1[C@@H]2c1ccc(O)cc1
1.3

Then this compound: COC(=O)[C@@]1(Cc2ccccc2)[C@H]2c3cc(C(=O)N(C)C)n(Cc4ccc(C(F)(F)F)nc4)c3C[C@H]2CN1C(=O)c1ccccc1
1.12

Then this compound: CC(C)(C)N1CC=CC23O[C@@H]4C=CCCOC(=O)C4[C@H]2C(=O)N(CCCCCCO)[C@@H]3C1=O (stereo not given in full)
-0.404

Then this compound: CCCCC(O)C1C=CC2C(=O)N(c3ccccc3)C(=O)C2N1Nc1ccc(C#N)cc1 (stereo not given)
0.383

Then this compound: O=C(NC1CC1)[C@@H]1c2ccccc2C(=O)N(Cc2ccc(OC(F)(F)F)cc2)[C@H]1c1ccc(CO)cc1
-0.589

###

- Protocol Text: viability profiling in MM1S myeloma cells – cell-based, resazurin fluorescence, basal, 24 h, PK04 Diversity Set, profiling panel (AID 1174);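 further: MM1S multiple myeloma cell line; test concentration not given here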
- Condition Summary: higher = more signal, called active from +8 up or from −8 down
Give Condition met when the value for z-score is at least -0.1. Give Condition not met when it is less.

Record O=C(O)[C@H](Cc1ccccc1)n1cc(C2(O)CCCCC2)nn1 ; criterion: z-score no lower than -0.1. Met?
Condition not met

Then this compound: CCCCCCc1nc(Cc2cc(OC)c(OC)c(OC)c2)cc2c1[Si](C(C)C)(C(C)C)O[C@H]2c1ccccc1
Condition not met

Then this compound: CCCC=C(CCC)[C@@H](NC(=O)OCC(C)C)c1ccc(C(=O)OC)cc1
Condition met

Then this compound: CCOC(=O)C1=C[C@@H](C(C)(C)C)N(S(=O)(=O)c2ccc(C)cc2)[C@H]1c1ccc(C#N)cc1
Condition not met

Then this compound: CC(C)=CCCC=C(C)C(O)C1C=CC2C(=O)N(c3ccccc3)C(=O)C2N1Nc1ccc(C#N)cc1 (stereo not drawn)
Condition not met

Then this compound: CCOC(=O)C1=CC[C@@H](c2ccccc2)N(S(=O)(=O)c2ccc(C)cc2)[C@H]1c1ccccc1I
Condition met

Then this compound: COC(=O)[C@@]1(Cc2ccccc2)[C@H]2c3cc(C(=O)N(C)C)n(Cc4ccc(C(F)(F)F)nc4)c3C[C@H]2CN1C(=O)c1ccccc1
Condition not met

Then this compound: CC(C)=CCCC(C)=CC(O)C1C=CC2C(=O)NC(=O)C2N1Nc1ccc(Cl)cc1Cl (stereo not drawn)
Condition not met

Then this compound: C=CCC(OC(C)=O)[C@@H]1[C@@H](N(Cc2cccc3ccccc23)C(=O)c2ccc(-c3ccccc3)cc2)c2cc(OCCCO)ccc2N1C(=O)Cc1ccc2ccccc2c1 (stereo partly drawn)
Condition met

Then this compound: COCCn1c(C(=O)N(C)C)cc2c1C[C@H]1CN(C(=O)c3ccccc3)[C@@](Cc3ccc(OC)cc3)(C(=O)OC)[C@@H]21
Condition not met

Then this compound: CCCCN1CC=CC23O[C@@H]4/C=C\CCCOC(=O)C4[C@H]2C(=O)N(C(CO)C(C)C)[C@@H]3C1=O (stereo partly drawn)
Condition not met

Then this compound: C=CCC(OC(C)=O)[C@@H]1[C@@H](N(Cc2cc3ccccc3o2)C(=O)Cc2ccc(OC)cc2)c2cc(OCCCO)ccc2N1C(=O)c1ccc2ccccc2n1 (stereo partly drawn)
Condition met

Then this compound: CCCN1C(=O)[C@]2(CCC(=O)OC(C)(C)C)N=C(c3ccc(OCCCO)cc3)O[C@@H]2c2ccccc21
Condition not met

Then this compound: C=C(CCCC)/C(=C/C[C@H](OC(=O)c1ccncc1)c1cccc(OCCO)c1)c1cnc2ccccc2c1
Condition not met

Then this compound: COC(=O)[C@@]1(Cc2ccc(F)cc2)[C@H]2c3cc(C(=O)N4CCCC4)n(Cc4cc(F)cc5c4OCOC5)c3C[C@H]2CN1C(=O)c1ccccc1
Condition not met

Then this compound: C=CC[C@@]1(C(=O)N(C)C)N=C(c2ccc(OCCCO)cc2)O[C@@H]1c1ccccc1CN=[N+]=[N-]
Condition not met

Then this compound: COC(=O)C1=CC(CCCO)=CC(c2cccs2)N(Cc2cc3c(cc2Br)OCO3)C=C1C(=O)OC (stereo not drawn)
Condition met

Then this compound: O=C1N(Cc2ccccc2)c2ccccc2C[C@@]12COC(c1ccc(OCCCO)cc1)=N2
Condition not met

Then this compound: CN(C)CCCCNC(=O)[C@H]1C[C@H]2C(=O)N3CCC[C@H]3C(=O)N2[C@H]1c1cccc(OCCO)c1
Condition met

Then this compound: OCCCC1=CC(c2ccc(CN3CCCC3)cc2)N(Cc2cccc(OC(F)(F)F)c2)CC1 (stereo not drawn)
Condition not met

Then this compound: C=CC[C@]1(C(=O)NCC(O)CO)COC(c2ccc(OCCCO)cc2)=N1 (stereo partly drawn)
Condition not met

Then this compound: Cc1ccc(S[C@]2(C(=O)NC3CC3)CC(=O)N(C(C)C)[C@@H]2c2ccc(CO)cc2I)cc1
Condition not met

Then this compound: CC=CC(O)C1C=CC2C(=O)NC(=O)C2N1Nc1ccc(Cl)cc1Cl (stereo not drawn)
Condition not met

Then this compound: CCCCC(O)C1C=CC2C(=O)N(c3ccccc3)C(=O)C2N1Nc1ccc([N+](=O)[O-])cc1 (stereo not drawn)
Condition met

Then this compound: O=C1[C@@H]2[C@@H](CC(COc3ccccc3)=C([C@H](O)CCc3ccccc3)[C@@H]2CO)C(=O)N1Cc1ccccc1
Condition not met

Then this compound: CC(C)NC(=O)[C@@H]1c2ccccc2C(=O)N(Cc2ccccc2C(F)(F)F)[C@H]1c1ccc(CO)cc1
Condition met

Then this compound: CC(C)(C)N1CC=CC23O[C@@H]4/C=C\CCCOC(=O)C4[C@H]2C(=O)N(CCCO)[C@@H]3C1=O (stereo partly drawn)
Condition met

Then this compound: C[C@@H]1ON(c2ccccc2)[C@H](c2ccccc2)[C@H]1C(=O)O
Condition met

Then this compound: COc1cc(CO)cc(I)c1O[C@H]1C=C(C(=O)NCCO)C[C@@H](NC2CCCCCC2)[C@@H]1O
Condition met

Then this compound: COC(=O)C[C@H]1O[C@@]2(C[C@@H]1[Si](C)(C)C)C(=O)N(C)c1ccccc12
Condition met

Then this compound: COC(=O)c1cccc([C@H]2OC(=CC(=O)OC(C)C)C[C@@H](c3cccc(C(=O)OC)c3)O2)c1
Condition not met

Then this compound: CN(C)c1ccc(C(O)C2C=CC3C(=O)N(Cc4ccccc4)C(=O)C3N2n2cnnc2)cc1 (stereo not drawn)
Condition not met

Then this compound: COc1cc(CO)cc(I)c1O[C@H]1C=C(C(=O)NCCO)C[C@@H]2O[C@H]12
Condition met
